- Test system: NCI-H2452 (Mesothelioma)
- assay.comment: combination Emax (second highest fraction inhibited in the dose matrix, 72 h); higher = more inhibition; extreme values may be limits of the assay
measurement.label: combination Emax
Just the number, please, no unit after it.

Short answer for CCN(CCO)CCCOc1ccc2c(Nc3cc(CC(=O)Nc4cccc(F)c4)[nH]n3)ncnc2c1 [AZD2811] + C[C@@H]1COCCN1C2=NC(=NC(=C2)C3(CC3)[S@](=N)(=O)C)C4=C5C=CNC5=NC=C4 [AZD6738] (first compound max 1 µM, 7x7, partner max 10 µM) : combination Emax was 0.431

# combination Emax of C=CCn1c(=O)c2cnc(Nc3ccc(N4CCN(C)CC4)cc3)nc2n1-c1cccc(C(C)(C)O)n1 [AZD1775] + C[C@@H]1COCCN1C2=NC(=NC(=C2)C3(CC3)[S@](=N)(=O)C)C4=C5C=CNC5=NC=C4 [AZD6738] (first compound max 1 µM, partner max 10 µM) = 0.747

Record N#Cc1cnc(Nc2cc(NC[C@H]3CNCCO3)c(C(F)(F)F)cn2)cn1 [SRA737] + CCc1c2c(nc3ccc(O)cc13)-c1cc3c(c(=O)n1C2)COC(=O)[C@]3(O)CC [SN-38] (first compound max 10 µM, 7x7, partner max 0.3 µM) , field combination Emax: 0.787

Sure, the documented combination Emax for COc1nnc2ccc(N3CCC(c4ccc(OCCN5CCN(C)C(=O)[C@H]5C)cc4)CC3)nn12 [AZD5153] + CC1(C)CCC(CN2CCN(c3ccc(C(=O)NS(=O)(=O)c4ccc(NCC5CCOCC5)c([N+](=O)[O-])c4)c(Oc4cnc5[nH]ccc5c4)c3)CC2)=C(c2ccc(Cl)cc2)C1 [Venetoclax] (first compound max 1 µM, 7x7, partner max 1 µM) is 0.411
